Provide the reported TGI of each item.
- Test system: SNB-19 CNS
- measurement-protocol: NCI tumour cell line growth inhibition, 48 h

Here are 3 molecules together with their reported answers.
* CCOC(=O)C(Cc1c[nH]c2c(N(CCO)CCO)cccc12)(NC(C)=O)C(=O)OCC | > 1000 µM
* COc1ccc(-n2c(N)c(C#N)[nH]c2=O)cc1 | > 10 µM
* Cc1ncc(C(=O)Nc2ccc(CN3CCN(C)CC3)c(C(F)(F)F)c2)cc1C#Cc1cnc2cccnn12 | 5.63 µM

Batch: TGI for all items listed.
1. O=C1CC2C(=O)c3ccccc3CC2c2ccccc21 (stereo not drawn)
2. COc1cc(C(C)O)c(S(=O)(=O)CC(C)O)nn1 (stereo not drawn)
3. CCCC(CCC(N)=O)(CCC(N)=O)[N+](=O)[O-]
4. COc1ccccc1C#Cc1ccccc1C#CCCCCO
5. CCC1CC2C(=O)N(c3ccccc3)C(=O)C2c2[nH]c3ccccc3c21 (stereo not drawn)
6. CCP(=O)(CC)C(Cl)Cl
7. CCOC(=O)c1cc2cc3c4c(c2oc1=O)CCCN4CCC3

Out:
["> 100 µM", "> 100 µM", "> 100 µM", "32.8 µM", "75.1 µM", "> 100 µM", "> 100 µM"]

====

- Tested on: SF-268 CNS
- measurement-protocol: NCI tumour cell line growth inhibition, 48 h
readout: TGI (µM)
One number for each entry, in µM.

Here are 4 molecules together with their reported answers.
- Cc1cc2/c(=C\c3ccc(N(C)C)cc3)c3ccccc3n2[n+]1C: 6.57
- O=C(/C=C/c1ccccc1)C(Br)C(Br)c1ccccc1 (configuration not stated): 5.68
- O=C(/C=C/C12c3ccccc3C(c3ccccc31)C1C(=O)NC(=O)C12)c1ccc(Cl)cc1Cl (configuration not stated): 3.44
- CCCCCCCCCCCCCCCCCC1=NC(C)(C)CN1CC(C)O (configuration not stated): 4.06

Attention now turns to another entry.
In: May I ask what TGI has been recorded for COc1ccc(/C=C/C(=O)/C=C/c2cc3ccccc3[nH]c2=O)cc1 ?
Out: 11.4

====

- Tested on: SK-MEL-2 melanoma
- measurement-protocol: NCI tumour cell line growth inhibition, 48 h
readout: TGI

Here are 8 compounds together with their reported answers.
- CCNc1cc(-c2cccc(OC(F)(F)F)c2)nc2ccc(N3CCCC3)cc12: 3.54 µM
- O=C(/C=C/c1cccc(Oc2ccccc2)c1)NCc1ccc(C(=O)NCc2ccccc2)cc1: > 100 µM
- C=CCC1CC(n2cc(C)c(=O)[nH]c2=O)OC1CO[Si](C)(C)C(C)(C)C (stereo unspecified): 32.8 µM
- O=C1c2ccccc2C(=O)c2cc(N=Nc3c(O)ccc4ccccc34)ccc21: > 100 µM
- CCCCCCCCCCCCCCCCNC(=O)C(=O)/C=C(\O)c1ccc(C)cc1: > 10 µM
- CC1=NC2=Nc3nc(C)cc[n+]3CN2C=C1: > 100 µM
- COc1ccc(NC(=O)CC2SC(=Nc3ccccc3C)NC2=O)c([N+](=O)[O-])c1 (stereo unspecified): > 100 µM
- NC(N)=NC(N)=Nc1ccc(S(=O)(=O)O)cc1: > 100 µM

Batch: TGI for all items listed.
1. CC(C)(C)OC(=O)NC1CC2(C=C(Br)C(=O)C(Br)=C2)OC1=O (stereo unspecified)
2. N#Cc1ccccc1C(Cl)(Cl)c1cnccn1
3. O=C(N/N=C/c1cc(Cl)cc(Cl)c1[O-])c1ccccc1O.O=C(N/N=C/c1cc(Cl)cc(Cl)c1[O-])c1ccccc1O.[Co+2]
4. CN(Cc1cnc2nc(N)nc(N)c2n1)c1ccc(C(=O)N[C@@H](CCC(=O)O)C(=O)O)cc1
5. COc1c(/C=C/C(C)(C)O)cc(C2CC(=O)c3c(O)cc(O)cc3O2)cc1CC=C(C)C (stereo unspecified)
6. CCNC(=O)COc1ccc(Br)cc1Br
7. COc1cc(OC)c(C(=O)/C=C/c2cc3c(cc2OCc2ccccc2)OC(C)(C)CC3)cc1CC=C(C)C
8. COc1cc2c(cc1OC)C(=O)N(c1ccc(O)cc1)C2=O

Out:
1: 32 µM; 2: > 100 µM; 3: 3.74 µM; 4: > 250 µM; 5: 15.6 µM; 6: > 100 µM; 7: > 25 µM; 8: > 100 µM

====

- Test system: BT-549 breast
- measurement-protocol: NCI tumour cell line growth inhibition, 48 h
readout: TGI

Here are 4 molecules together with their reported answers.
• O=C1CC(c2ccccc2)C2(C(=O)NC(=S)NC2=O)C(c2ccccc2)C1 (centres undefined) = > 75 µM
• Cc1c2c3ccccc3nc-2n(C)c2ccccc12 = 19.3 µM
• CCCC(CCC(N)=O)(CCC(N)=O)[N+](=O)[O-] = > 100 µM
• COc1ccc(-c2ccncc2)cc1C(N)=O = > 25 µM

Batch: TGI for all items listed.
1. CN1C/C(=C\c2cccs2)C(O)/C(=C/c2cccs2)C1 (centres undefined)
2. CC[C@@]1(O)C(=O)OCc2c1cc1n(c2=O)Cc2c-1nc1ccccc1c2/C=N\NC(=O)C1CCCN1 (some centres undefined)
3. O=C1C(Br)=C(c2ccccc2)O/C1=C/C(=O)c1ccc(Br)cc1
4. O=C(NCCN1CCOCC1)c1cn2c(ccc3sc4ccccc4c(=O)c32)n1
5. S=c1snc2n1CCN2
6. COc1cc(F)c(F)c(Nc2ccc(I)cc2F)c1NS(=O)(=O)C1(C[C@H](O)CO)CC1

Out:
1. > 100 µM
2. > 100 µM
3. 25.5 µM
4. > 100 µM
5. > 100 µM
6. > 10 µM

====

Provide the reported TGI of each item.
- Tested on: MDA-MB-231 breast
- measurement-protocol: NCI tumour cell line growth inhibition, 48 h

• COc1cc2ncn(-c3cc(OCc4ccccc4C(F)(F)F)c(C(=O)N(C)C)s3)c2cc1OC = > 25 µM
• O=C1CC2C(=O)c3ccccc3CC2c2ccccc21 (centres undefined) = > 100 µM
• CS(=O)(=O)OCCN(CCOS(C)(=O)=O)c1ccc(C=Nc2cccc(Cl)c2)cc1 = 48.6 µM
• O=C(/C=C/c1ccc(-c2ccccc2)cc1)NCc1ccc(C(=O)NCc2ccccc2)cc1 = > 100 µM
• CC(C)CCC[C@@H](C)[C@H]1CC[C@H]2[C@@H]3CC[C@H]4C[C@@H](CCC=C(c5cc(Cl)c(O)c(C(=O)O)c5)c5cc(Cl)c(O)c(C(=O)O)c5)CC[C@]4(C)[C@H]3CC[C@]12C = > 100 µM

Batch: TGI for all items listed.
1. CCOC(=O)C(Cc1c[nH]c2c(N(CCO)CCO)cccc12)(NC(C)=O)C(=O)OCC
2. CN1C/C(=C\c2cccs2)C(O)/C(=C/c2cccs2)C1 (centres undefined)

Out:
1. > 1000 µM
2. > 100 µM

Batch: TGI for all items listed.
1. COc1ccc2c(=O)cc(-c3ccccc3)[nH]c2c1
2. O=C1CC(c2ccccc2)C2(C(=O)NC(=S)NC2=O)C(c2ccccc2)C1 (centres undefined)

Out:
["> 100 µM", "> 75 µM"]

====

- System: COLO 205 colon
- measurement-protocol: NCI tumour cell line growth inhibition, 48 h; in the data active means GI50 below about 0.43 µM; inactive means the rest
Hi there, use one of these labels in your reply, thanks! True = active, False = inactive

* Cc1nc(N)nc2c1CCC(O)S2 (stereo not drawn) | False

In: Could you kindly confirm the outcome this assay logged for COc1cc2ncn(-c3cc(OCc4ccccc4C(F)(F)F)c(C(=O)N(C)C)s3)c2cc1OC ?
Out: False

In: Could you kindly confirm the outcome this assay logged for O=C(N/N=C/c1cc(Cl)cc(Cl)c1[O-])c1ccccc1O.O=C(N/N=C/c1cc(Cl)cc(Cl)c1[O-])c1ccccc1O.[Co+2] ?
Out: False

In: Could you kindly confirm the outcome this assay logged for OCc1ccc(N2CCc3cccc(F)c3C2)cc1Cl ?
Out: True

In: Could you kindly confirm the outcome this assay logged for COc1ccc(-c2ccncc2)cc1C(N)=O ?
Out: False

In: Could you kindly confirm the outcome this assay logged for Cn1c(C(=O)c2ccncc2)cc2ccccc21 ?
Out: False

In: Could you kindly confirm the outcome this assay logged for CCC(O)c1ccc(Br)cc1NC(=O)c1cccc(Cl)c1 (stereo not drawn) ?
Out: False

In: Could you kindly confirm the outcome this assay logged for S=c1snc2n1CCN2 ?
Out: False

====

- Test system: NCI-H460 lung
- measurement-protocol: NCI tumour cell line growth inhibition, 48 h
Provide the reported TGI of each item.

* NS(=O)(=O)c1ccc(-n2nc3c(c2-c2ccc(Cl)cc2)Cc2ccccc2-3)cc1 | > 100 µM
* Cc1ccc(SC2C(=O)C3CC(OCc4ccccc4)C2(C)C3(C)C)cc1 (stereo not given) | > 100 µM
* [C](#Cc1ccccc1)[Hg][C]#Cc1ccccc1 | > 100 µM
* OC1(c2ccc(-c3ccccc3)cc2)c2ccccc2C2=NCCN21 (stereo not given) | > 100 µM
* COC(=O)CCC1=C(CC(=O)OC)C(C)(OC)N=C1NC(=O)OCc1ccccc1 (stereo not given) | > 100 µM
* COc1cc2c(c(OC)c1OC)-c1ncc3c(OC)c(OC)c(OC)cc3c1C2 | > 100 µM
* CC1=NC2=Nc3nc(C)cc[n+]3CN2C=C1 | > 100 µM
* CCOC(=O)C1=C(O)C2C3CC4C2C(O)=C(C(=O)OCC)C2C1C3C42 (stereo not given) | > 100 µM
* Cn1c2ccccc2c2c3c(c4c5ccccc5n(C)c4c21)C(=O)NC3=O | 70.1 µM

Attention now turns to another entry.
In: May I ask what TGI has been recorded for CC[C@@]1(O)C(=O)OCc2c1cc1n(c2=O)Cc2c-1nc1ccccc1c2/C=N\NC(=O)C1CCCN1 (stereo not given in full) ?
Out: 10.5 µM

Ref: PubChem BioAssay (NCI)
